# System: HIV BH-10 WT
# assay_summary: Cell-based assay using BH-10 cells, wild type
# settings: Human immunodeficiency virus 1, read-out: EC50 WT///B, BH-10 cells, wild type
property_name: EC50 (nM)
Number only, in nM; omit the unit.

Please report the recorded EC50 for COP(=O)(c1cc(C)cc(C)c1)c1c(C(N)=O)[nH]c2ccc(Cl)c(F)c12 (centres unmarked) [Compound 7z] . 2.1

# get_value(readout='EC50', item= COP(=O)(c1cc(C)cc(C#N)c1)c1c(C(=O)NCc2ccncc2)[nH]c2ccc(Cl)cc12 (centres unmarked) [Compound 18aaf] ) 1.8

Fill blank: measured EC50 of the compound COP(=O)(c1cc(F)cc(C(F)(F)F)c1)c1c(C(N)=O)[nH]c2ccc(Cl)cc12 (centres unmarked) [Compound 7q] is ____. 1.1

Consider the compound COP(=O)(c1cc(F)cc(F)c1)c1c(C(=O)NCc2ccc(C#N)cc2)[nH]c2ccc(Cl)cc12 (centres unmarked) [Compound 18q] and give its measured EC50. 3

Name the reported EC50 value associated with the compound COP(=O)(c1cc(C)cc(C)c1)c1c(C(=O)NCc2ccc(Br)cc2)[nH]c2ccc(Cl)cc12 (centres unmarked) [Compound 18k] 39.3

State the recorded EC50 for this entry: COP(=O)(c1cccc2ccccc12)c1c(C(N)=O)[nH]c2ccc(Cl)cc12 (centres unmarked) [Compound 7t] 0.6

What measured EC50 goes with COP(=O)(c1cccc(CF)c1)c1c(C(N)=O)[nH]c2ccc(Cl)cc12 (centres unmarked) [Compound 7h] ? 0.9

Give its EC50 value. Item: COP(=O)(c1cc(C(F)(F)F)cc(C(F)(F)F)c1)c1c(C(N)=O)[nH]c2ccc(Cl)cc12 (centres unmarked) [Compound 7s] 12.8

###

# Tested on: HIV BH-10 WT
# assay_summary: Cell-based assay using BH-10 cells, wild type
# settings: Human immunodeficiency virus 1, read-out: EC50 WT///B, BH-10 cells, wild type
Below, each entry is listed with its recorded pEC50.
A value of pEC50 is the negative decimal logarithm of a concentration given in moles per litre.

Would you please look over these solved cases?
Could you share which pEC50 value was measured for COP(=O)(c1cc(C)cc(C)c1)c1c(C(=O)NCc2cc[n+]([O-])cc2)[nH]c2ccc(Cl)c(F)c12 (stereo not shown) [Compound 22m] ? 8.68

Give the measured pEC50 of COP(=O)(c1cc(C)cc(F)c1)c1c(C(=O)NCc2ccncc2)[nH]c2ccc(Cl)cc12 (stereo not shown) [Compound 18d] . 8.64

Data request, read-out pEC50, for CCOP(=O)(c1cc(C)cc(C)c1)c1c(C(=O)NCc2ccncc2)[nH]c2ccc(Cl)cc12 (stereo not shown) 7.96

Report pEC50 for COP(=O)(c1cc(C)cc(C)c1)c1c(C(=O)NCc2cccnc2)[nH]c2ccc(Cl)c(F)c12 (stereo not shown) please. 7.82

pEC50 for CCOP(=O)(c1cc(C)cc(C)c1)c1c(C(N)=O)[nH]c2ccc(Cl)cc12 (stereo not shown) ? 8.52

Further cases:
Dear colleague, I am looking for the recorded pEC50 of the following molecule: COP(=O)(c1cc(C)cc(C)c1)c1c(C(=O)NCc2cnccn2)[nH]c2ccc(Cl)cc12 (stereo not shown) [Compound 18i] 8.52

I would be grateful if you could share the reported pEC50 for CCOP(=O)(c1ccccc1CC)c1c(C(N)=O)[nH]c2ccc(Cl)cc12 (stereo not shown) . 7.79

Data provenance: patent US7534809B2
